# System: HCT116
# experimental details: viability inhibition vs untreated; higher = more cytotoxic
# condition label: genotype: MTA1-KO; 400 nM; 72 h
Structures can show the parent of a compound that is named as a salt.
quantity: viability inhibition (%)
One number for each entry, in %.

# example entries with known answers
N[C@@H](CSCCB(O)O)C(=O)O [BEC HCl]; -3.32
O=C(O)CCC(=O)c1ccc(-c2ccccc2)cc1; -14.3

Next compound, please.
Q. Give HCT116 viability inhibition for the following compound: `NS(=O)(=O)NCCNc1nonc1C(=Nc1ccc(F)c(Br)c1)NO`
A. -7.79

====

Would you kindly list viability inhibition for each of these compounds?
# System: HCT116
# experimental details: viability inhibition vs untreated; higher = more cytotoxic
# condition label: genotype: MTA1-KO; 400 nM; 72 h
One number for each entry, in %.

# example entries with known answers
N#CC(C#N)=NNc1ccc(OC(F)(F)F)cc1; -17.8
OC(CNc1ccccc1)Cn1c2ccc(Br)cc2c2cc(Br)ccc21 (stereo not drawn); -15.4
O=C(O)CNC(=O)c1c(O)c2ccccc2n(Cc2ccccc2)c1=O; -20.5
N[C@@H](CCC(=O)N[C@@H](CS)C(=O)NCC(=O)O)C(=O)O; -21.1
COc1cnc(NS(=O)(=O)c2ccc(N)cc2)nc1; -0.547

Look up viability inhibition for the entries below, preserving their order.
1. Cc1ccccc1C(C(=O)NC1CCCCC1)N(C(=O)Cn1ccnc1C)c1cccc(F)c1 (stereo not drawn)
2. CC(C)c1nc(N(C)S(C)(=O)=O)nc(-c2ccc(F)cc2)c1/C=C/[C@@H](O)C[C@@H](O)CC(=O)O

A.
[5.76, -10.3]

====

Would you kindly list viability inhibition for each of these compounds?
# Test system: HCT116
# experimental details: viability inhibition vs untreated; higher = more cytotoxic
# condition label: genotype: MTA1-KO; 16 nM; 72 h
Where a name gives a salt, the structure may show the parent alone.
Answers are plain numbers, in %.

N#CCCCSC(=N)N [Kevetrin hydrochloride]; 12.4

Look up viability inhibition for the entries below, preserving their order.
1. CCN1C(=O)CNc2ncc(-c3ccc(-c4ncn[nH]4)nc3C)nc21 [CC115]
2. CC[C@H](CC#N)OC(=O)N[C@@H](C)c1cccc(NC(=O)Nc2ccc(-c3cnco3)c(OC)c2)c1 [AVN944]
3. O=c1cc(O)c(Cl)c[nH]1 [Gimeracil]
4. COCCNC(=O)Nc1ccc2nc(-c3cccs3)c(-c3cccs3)nc2c1 [Ac-CoA Synthase Inhibitor1]
5. CC1=C(/C=C/C(C)=C/C=C/C(C)=C/C(=O)Nc2ccc(O)cc2)C(C)(C)CCC1 [Fenretinide]

A.
[5.59, 5.16, -16.5, -8.17, -13]

Look up viability inhibition for the entries below, preserving their order.
1. Nc1ncnc2c1ncn2[C@@H]1O[C@H](COP(=O)(O)O)[C@@H](O)[C@H]1O [Adenosine 5'-monophosphate monohydrate]
2. OCc1ccc(-c2ccc(-c3ccc(CO)s3)o2)s1 [RITA]
3. COc1ccccc1OCC(O)CN1CCN(CC(=O)Nc2c(C)cccc2C)CC1 (stereo not drawn) [Ranolazine dihydrochloride]
4. NS(=O)(=O)c1cc(Cl)c(Cl)c(S(N)(=O)=O)c1 [Dichlorphenamide]
5. NCc1ccc(S(N)(=O)=O)cc1 [Mafenide hydrochloride]
6. O=c1cc(N2CCOCC2)oc2c(-c3ccc4c(c3)OCCO4)csc12 [SF2523]
7. O=C(Oc1ccc([N+](=O)[O-])cc1)N1CCC(C(O)(c2ccc3c(c2)OCO3)c2ccc3c(c2)OCO3)CC1 [JZL184]

A.
1: -22.7; 2: 7.71; 3: -7.57; 4: 6.61; 5: -13; 6: 7.25; 7: 6.97

Look up viability inhibition for the entries below, preserving their order.
1. CC(C)CC(N)=O [Isovaleramide]
2. C/C(=C1/C(=O)Nc2ccc(NC(N)=O)cc21)c1ccc[nH]1 [BX517]
3. O=c1oc2cc(O)ccc2s1 [Tioxolone]
4. COc1cc2c(cc1O)CC[C@@H]1[C@@H]2CC[C@]2(C)[C@@H](O)CC[C@@H]12 [2-Methoxyestradiol]
5. CC(C)(C)c1cc(O)ccc1O [TBHQ]
6. C[C@H](Oc1cc(-c2cnn(C3CCNCC3)c2)cnc1N)c1c(Cl)ccc(F)c1Cl [(S)-crizotinib]
7. CCNC(=O)Nc1ccc(-c2nc(N3CCOC[C@@H]3C)c3c(n2)C(C)(C)S(=O)(=O)C3)cc1 [CZ415]
8. CO[C@H]1C[C@@H]2CC[C@@H](C)[C@@](O)(O2)C(=O)C(=O)N2CCCC[C@H]2C(=O)O[C@H]([C@H](C)C[C@@H]2CC[C@@H](OCCO)[C@H](OC)C2)CC(=O)[C@H](C)/C=C(\C)[C@@H](O)[C@@H](OC)C(=O)[C@H](C)C[C@H](C)/C=C/C=C/C=C/1C [Everolimus]

A.
-15.6
-1.27
-23.8
12.6
-1.6
-3.98
-6.27
-19

Look up viability inhibition for the entries below, preserving their order.
1. CO[C@H]1C[C@@H]2CC[C@@H](C)[C@@](O)(O2)C(=O)C(=O)N2CCCC[C@H]2C(=O)O[C@H]([C@H](C)C[C@@H]2CC[C@@H](O)[C@H](OC)C2)CC(=O)[C@H](C)/C=C(\C)[C@@H](O)[C@@H](OC)C(=O)[C@H](C)C[C@H](C)/C=C/C=C/C=C/1C [Rapamycin]
2. O=C(/C=C/c1ccc2ccc(C(F)(F)F)cc2n1)c1ccncc1 [PFK158]

A.
4.81
-5.2
